System: full length IL-2 (amino acids 1-153) fused to Gaussia Luciferase
TEST METHOD NOTES: Dox Induced IL2-FL-Gluc Assay
Type: cell-based
MEASUREMENT SETUP: 24 hr, 293FRT/TO; read-out: 24 hr Dox Inducible IL2FLGluc 293FRT/TO: Mean IC50
PROPERTY NAME: IC50 (nM)

Observe how each entry below is paired with its result.
[
  {
    "COMPOUND": "C[C@H]1CN(S(=O)(=O)c2ccc(N(C)C)cc2)CCCN(CC2CCCCC2)CCCN(S(=O)(=O)N2CCN(c3ncccn3)CC2)C1 [A93]",
    "VALUE": 911
  },
  {
    "COMPOUND": "C[C@H]1CN(S(=O)(=O)c2ccc(N(C)C)cc2)CCCN(CC2CCCCC2)CCCN(S(=O)(=O)N2CCC(Oc3ccccc3)CC2)C1 [A92]",
    "VALUE": 519
  },
  {
    "COMPOUND": "Cc1ccc(N2CCN(S(=O)(=O)N3CCCN(CC4CCCCC4)CCCN(S(=O)(=O)c4ccc(N(C)C)cc4)C[C@H](C)C3)CC2)cc1 [A99]",
    "VALUE": 350
  },
  {
    "COMPOUND": "CN(C)c1ccc(S(=O)(=O)N2CCCN(CC3CCCCC3)CCCN(S(=O)(=O)N3CCC(c4ccccc4)CC3)CC3(CC3)C2)cc1 [A29]",
    "VALUE": 447
  },
  {
    "COMPOUND": "C=C1CN(S(=O)(=O)c2ccc(N(C)C)cc2)CCCN(CC2CCCCC2)CCCN(S(=O)(=O)N2CCc3ccccc3C2)C1 [A50]",
    "VALUE": 57
  },
  {
    "COMPOUND": "CN(C)c1ccc(S(=O)(=O)N2CCCN(CC3CCCCC3)CCCN(S(=O)(=O)N3CCC(c4ccccc4)CC3)C/C(=N/O)C2)cc1 [A75]",
    "VALUE": 233
  },
  {
    "COMPOUND": "Cc1ccccc1N1CCN(S(=O)(=O)N2CCCN(CC3CCCCC3)CCCN(S(=O)(=O)c3ccc(N(C)C)cc3)C[C@H](C)C2)CC1 [A97]",
    "VALUE": 87
  },
  {
    "COMPOUND": "C[C@H]1CN(S(=O)(=O)c2ccc(N(C)C)cc2)CCCN(CC2CCCCC2)CCCN(S(=O)(=O)N2CCN(c3ccccc3F)CC2)C1 [A94]",
    "VALUE": 78.3
  }
]

1: C=C1CN(S(=O)(=O)c2ccc(N(C)C)cc2)CCCN(CC2CCCCC2)CCCN(S(=O)(=O)N2CCN(c3ccccc3)CC2)C1 [A36]
2: C=C1CN(S(=O)(=O)c2ccc(C)cc2)CCCN(Cc2ccccc2)CCCN(S(=O)(=O)c2ccc(C)cc2)C1 [A1]
Data request: Hi there, can you help? I need to know whether 1 or 2 has lower measured IC50. Answer format: the label of the selected item.
Data returned: 1

P: C=C1CN(S(=O)(=O)c2ccc(N(C)C)cc2)CCCN(CC2CCCCC2)CCCN(S(=O)(=O)N2CC=C(c3ccc(Cl)cc3)CC2)C1 [A74]
Q: C=C1CN(S(=O)(=O)c2ccc(N(C)C)cc2)CCCN(CC2CCCCC2)CCCN(S(=O)(=O)N2CCC[C@@H](c3ccccc3)C2)C1 [A43]
Data request: Recorded IC50 values differ for P and Q ; which one is higher? Answer by stating the label of the chosen item.
Data returned: P
